Each entry below carries its recorded IC50.
# system name: NLRP3 (Homo sapiens, UniProt Q96P20)
# Sequence (Q96P20 whole entry): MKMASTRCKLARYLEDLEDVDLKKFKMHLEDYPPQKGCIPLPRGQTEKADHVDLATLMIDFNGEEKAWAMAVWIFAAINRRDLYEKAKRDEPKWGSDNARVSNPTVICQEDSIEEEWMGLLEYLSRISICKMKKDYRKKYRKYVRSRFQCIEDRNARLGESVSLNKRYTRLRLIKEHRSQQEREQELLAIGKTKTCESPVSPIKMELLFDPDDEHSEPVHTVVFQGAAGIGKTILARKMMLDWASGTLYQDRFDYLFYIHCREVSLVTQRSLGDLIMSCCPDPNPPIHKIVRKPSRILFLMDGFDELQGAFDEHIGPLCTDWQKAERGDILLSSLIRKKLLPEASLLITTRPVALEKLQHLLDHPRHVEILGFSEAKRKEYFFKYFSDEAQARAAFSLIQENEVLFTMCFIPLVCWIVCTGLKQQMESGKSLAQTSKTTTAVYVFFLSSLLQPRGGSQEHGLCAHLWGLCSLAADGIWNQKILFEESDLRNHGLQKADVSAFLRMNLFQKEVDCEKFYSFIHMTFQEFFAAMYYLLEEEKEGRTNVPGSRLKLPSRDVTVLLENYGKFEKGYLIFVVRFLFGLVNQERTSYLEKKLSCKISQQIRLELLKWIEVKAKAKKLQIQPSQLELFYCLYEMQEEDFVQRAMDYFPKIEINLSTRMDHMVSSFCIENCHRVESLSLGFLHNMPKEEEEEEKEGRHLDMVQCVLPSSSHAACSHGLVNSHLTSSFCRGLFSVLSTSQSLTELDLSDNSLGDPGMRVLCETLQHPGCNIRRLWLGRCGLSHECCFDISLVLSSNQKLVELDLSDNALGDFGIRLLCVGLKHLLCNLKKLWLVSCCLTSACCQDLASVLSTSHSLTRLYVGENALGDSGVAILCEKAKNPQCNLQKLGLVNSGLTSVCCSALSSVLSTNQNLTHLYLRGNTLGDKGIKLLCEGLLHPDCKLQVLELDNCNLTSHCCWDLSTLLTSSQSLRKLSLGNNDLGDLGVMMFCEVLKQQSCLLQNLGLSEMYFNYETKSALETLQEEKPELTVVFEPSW
# experiment: THP-1 cells pyroptosis assay (LPS + nigericin, resazurin read-out)
# Format: cell-based
# Design: Seed THP-1 cells (25,000 cells/well) containing 1.0 μg/ml LPS; host or cells: THP-1 cells
# condition description: THP-1 cells, 1 μg/ml LPS, 5 μM nigericin; NLRP3 inhibitory activity; read-out: THP IC50
Where a name gives a salt, the structure may show the parent alone.

Some molecules with known IC50 results, for comparison:
* CN1CCCC2CN(S(=O)(=O)NC(=O)Nc3c4c(cc5c3CCC5)CCC4)CC21 (stereo not drawn) | < 0.5 µM
* CC(C)NCCN(C(C)C)S(=O)(=O)NC(=O)Nc1c2c(cc3c1CCC3)CCC2 [Example 28, potassium salt] | < 0.5 µM
* CCN(CC)[C@H]1C[C@H]2CC[C@@H](C1)N2S(=O)(=O)NC(=O)Nc1c2c(cc3c1CCC3)CCC2 | < 0.5 µM
* CN(C)CC(C)(C)NS(=O)(=O)NC(=O)Nc1c2c(cc3c1CCC3)CCC2 [Example 59, potassium salt] | < 5 µM
* CC(C)N1CCC1CNS(=O)(=O)NC(=O)Nc1c2c(cc3c1CCC3)CCC2 (stereo not drawn) [Example 50, potassium salt] | < 0.5 µM
* CN(C)C1CCN(S(=O)(=O)NC(=O)Nc2c3c(cc4c2CCC4)CCC3)C1 (stereo not drawn) [Example 9, potassium salt] | < 0.5 µM
* CN(C)C(C)(C)CNS(=O)(=O)NC(=O)Nc1c2c(cc3c1CCC3)CCC2 [Example 57, potassium salt] | < 5 µM
* CC(C)(C)NCCNS(=O)(=O)NC(=O)Nc1c2c(cc3c1CCC3)CCC2 [Example 71, potassium salt] | < 0.5 µM

stdin: Respond only with IC50 recorded for `CCN(CC)[C@@H]1C[C@H]2CC[C@@H](C1)N2S(=O)(=O)NC(=O)Nc1c2c(cc3c1CCC3)CCC2`
stdout: < 5 µM

stdin: Respond only with IC50 recorded for CC(C)n1cc(NS(=O)(=O)NC(=O)Nc2c3c(cc4c2CCC4)CCC3)cn1 [Example 65, potassium salt]
stdout: < 0.5 µM

stdin: Respond only with IC50 recorded for O=C1Cc2cc(NS(=O)(=O)NC(=O)Nc3c4c(cc5c3CCC5)CCC4)ccc2N1 [Example 24, potassium salt]
stdout: < 10 µM

stdin: Respond only with IC50 recorded for CN(C)CCCCNS(=O)(=O)NC(=O)Nc1c2c(cc3c1CCC3)CCC2 [Example 48, potassium salt]
stdout: < 1 µM

stdin: Respond only with IC50 recorded for CN1CC(CNS(=O)(=O)NC(=O)Nc2c3c(cc4c2CCC4)CCC3)C1 [Example 69, potassium salt]
stdout: < 1 µM

----------
# experiment: PK, oral administration
# Assay type: in vivo, male Sprague Dawley rats
# condition description: male, Sprague Dawley, plasma, rat, 3 mg/kg
Structures can show the parent of a compound that is named as a salt.
measurement type: CL/F (mL/min/kg)
Respond numerically; units are mL/min/kg and should not be typed.

• COc1cc(-c2ccc3c(c2NC(=O)NS(=O)(=O)N(C)[C@@H]2CCN(C)C2)CCC3)ccn1 [Example 110, potassium salt] = 50

stdin: Respond only with CL/F recorded for COc1cc(-c2ccc3c(c2NC(=O)NS(=O)(=O)N(C)[C@H]2CCN(C)C2)CCC3)ccn1 [Example 111, potassium salt]
stdout: 38

----------
# system name: NLRP3 (Homo sapiens, UniProt Q96P20)
# experiment: THP-1 cells pyroptosis assay (LPS + nigericin, resazurin read-out)
# Type: cell-based
# Set-up: Seed THP-1 cells (25,000 cells/well) containing 1.0 μg/ml LPS; host or cells: THP-1 cells
# condition description: THP-1 cells, 1 μg/ml LPS, 5 μM nigericin; NLRP3 inhibitory activity; read-out: THP IC50
# Method: THP-1 cells (ATCC #TIB-202) were grown in RPMI containing L-glutamine (Gibco #11835) supplemented with 1 mM sodium pyruvate (Sigma #S8636) and penicillin (100 units/ml)/streptomycin (0.1 mg/ml) (Sigma #P4333) in 10% Fetal Bovine Serum (FBS) (Sigma #F0804). […] The cells were then counted and viability (>90%) checked by Trypan blue (Sigma #T8154). […] The following method step-by-step assay was followed for compound screening. • 1. […] Plates were read in an Envision reader at Ex 560 nm and Em 590 nm • 9. […]
Where a name gives a salt, the structure may show the parent alone.
Each entry below carries its recorded IC50.

stdin: Respond only with IC50 recorded for COCCN(C)S(=O)(=O)NC(=O)Nc1c2c(cc3c1CCC3)CCC2 [Example 7, potassium salt]
stdout: < 1000 nM

----------
Each entry below carries its recorded IC50.
# system name: NLRP3 (Homo sapiens)
# experiment: THP-1 cells pyroptosis assay (LPS + nigericin, resazurin read-out)
# Format: cell-based
# Set-up: Seed THP-1 cells (25,000 cells/well) containing 1.0 μg/ml LPS; host or cells: THP-1 cells
# condition description: THP-1 cells, 1 μg/ml LPS, 5 μM nigericin; NLRP3 inhibitory activity; read-out: THP IC50
Structures can show the parent of a compound that is named as a salt.

stdin: Lab note: NLRP3 (Homo sapiens) assay, enter IC50 for CN1CCC[C@@H]1CN(C)S(=O)(=O)NC(=O)Nc1c2c(cc3c1CCC3)CCC2 [Example 95, potassium salt] here
stdout: < 500 nM

stdin: Lab note: NLRP3 (Homo sapiens) assay, enter IC50 for CN1CCCC1CNS(=O)(=O)NC(=O)Nc1c2c(cc3c1CCC3)CCC2 (stereo not shown) [Example 25, potassium salt] here
stdout: < 1000 nM

stdin: Lab note: NLRP3 (Homo sapiens) assay, enter IC50 for CN1CCC[C@@H]1CN(C)S(=O)(=O)NC(=O)Nc1c2c(cc3c1CCC3)C=CC2 [Example 112, potassium salt] here
stdout: < 1000 nM

stdin: Lab note: NLRP3 (Homo sapiens) assay, enter IC50 for O=C(Nc1c2c(cc3c1CCC3)CCC2)NS(=O)(=O)N1CCN2CCC1C2 (stereo not shown) [Example 60, potassium salt] here
stdout: < 1000 nM

stdin: Lab note: NLRP3 (Homo sapiens) assay, enter IC50 for CN1CC(CN(C)S(=O)(=O)NC(=O)Nc2c3c(cc4c2CCC4)CCC3)C1 [Example 84, potassium salt] here
stdout: < 500 nM

stdin: Lab note: NLRP3 (Homo sapiens) assay, enter IC50 for O=C(Nc1c2c(cc3c1CCC3)CCC2)NS(=O)(=O)NCCN1CCC1 [Example 35, potassium salt] here
stdout: < 5000 nM

----------
# system name: NLRP3 (Homo sapiens)
# experiment: THP-1 cells pyroptosis assay (LPS + nigericin, resazurin read-out)
# Assay type: cell-based
# Parameters: Seed THP-1 cells (25,000 cells/well) containing 1.0 μg/ml LPS; host or cells: THP-1 cells
# condition description: THP-1 cells, 1 μg/ml LPS, 5 μM nigericin; NLRP3 inhibitory activity; read-out: THP IC50
pIC50: −log10 of the molar value. Structures can show the parent of a compound that is named as a salt.
Each entry below carries its recorded pIC50.

• O=C(Nc1c2c(cc3c1CCC3)CCC2)NS(=O)(=O)N1CC(N2CCCC2)C1 [Example 23, potassium salt] = > 5.30
• CC(C)N1C2CCC1CN(S(=O)(=O)NC(=O)Nc1c3c(cc4c1CCC4)CCC3)C2 [Example 29, potassium salt] = > 6.30
• CN1CCCC1CN(C)S(=O)(=O)NC(=O)Nc1c2c(cc3c1CCC3)CCC2 (stereo not shown) [Example 80, potassium salt] = > 6.30
• CN1CCCCC1CNS(=O)(=O)NC(=O)Nc1c2c(cc3c1CCC3)CCC2 (stereo not shown) [Example 20, potassium salt] = > 6.30
• CN1C2CCC1CN(S(=O)(=O)NC(=O)Nc1c3c(cc4c1CCC4)CCC3)C2 [Example 14, potassium salt] = > 6.30
• CC(C)N1[C@@H]2CC[C@H]1C[C@H](NS(=O)(=O)NC(=O)Nc1c3c(cc4c1CCC4)CCC3)C2 [Example 63] = > 6.00

stdin: Respond only with pIC50 recorded for CC(C)N1CC2CN(S(=O)(=O)NC(=O)Nc3c4c(cc5c3CCC5)CCC4)CC21 (stereo not shown) [Example 87, potassium salt]
stdout: > 6.30

stdin: Respond only with pIC50 recorded for CN(C)CCN(Cc1ccccc1)S(=O)(=O)NC(=O)Nc1c2c(cc3c1CCC3)CCC2 [Example 10, potassium salt]
stdout: > 5.30

stdin: Respond only with pIC50 recorded for CN1C2CC1CN(S(=O)(=O)NC(=O)Nc1c3c(cc4c1CCC4)CCC3)C2 [Example 100]
stdout: > 6.30

stdin: Respond only with pIC50 recorded for CCN1CCCC(NS(=O)(=O)NC(=O)Nc2c3c(cc4c2CCC4)CCC3)C1 (stereo not shown) [Example 19, potassium salt]
stdout: > 6.00
